target.entity: T1, VEGF-D (recombinant human; source not given) (human, UniProt O43915 89-205, limits assumed)
T1 construct: also used here as target of IC50 values averaged over Source 1 and Source 2; also called vascular endothelial growth factor-D
T1 sequence: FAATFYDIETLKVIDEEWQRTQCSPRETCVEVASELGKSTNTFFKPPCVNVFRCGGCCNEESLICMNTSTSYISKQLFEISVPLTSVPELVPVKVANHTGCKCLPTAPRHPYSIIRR
assay.explanation: SPR (BIAcore) off-rate ranking of scFv clones
Readings of koff for the listed binders
Supply the numeric figure in s⁻¹, leaving out any unit text.

1. scFv clone H71 (scFv) scFv: QVQLVQSGAEVKQPGASVRVSCKASGYTFTGYNMYWVRQAPGQGLEWMGYIDPYNGDTTYNQKFKGRVAMTTDTSTSTAYMELRSLRSDDTAVYYCARTSYYGGMDYWGRGTLVTVASGGGASGGGGSGGGGSDIVMTQTPLSSPVTLGQPASISCRTSQSLVHSNGNTYLHWLQQRPGQPPRLLIYKVSNRFSGVPDRFSGSGAGTDFTLKISRVEAEDVGVYYCSQSTHVPRTFGQGTKLEIKR    0.00653

Please look at this binder and report its koff: scFv clone CZ13 (scFv) scFv: QVQLAQSGAKVKQPGASVKASCKASGYTFTGYNMYWVRQAPGQGLEWMGYIDPYNGDTTYNQKFKGRVTMTTDTSTSTAYMELRSLRSDDTAVYYCARTSYYGGMDYWGRGTLVTVASGGGASGGGGSGGGGSDIVMTQTPLSSPVTLGQPASISCRSSQSLVHSNGNTYLHWLQQRPGQPPRLLIYKVSNRFSGVPDRFSGSGAGTDFTLKISRVEAEDVGVYYCSQSTHVPRTFGQGTKLEIKR
0.00826
